Can you tell me Ki for the items I'm about to list?
Put your answer as a value accompanied by its unit after it.

Note to self: Ki of N#Cc1sc(=S)n(-c2ccccc2)c1/N=C/c1ccc(F)cc1 with Adenosine receptor A2a (Homo sapiens, UniProt P29274) was 0.0047 nM

Known value: Adenosine receptor A2a (Homo sapiens, UniProt P29274) Ki of the compound CCCn1c(/N=C/c2ccc(Br)cc2)c(C#N)sc1=S equals 1.8 nM

Summary: N#Cc1sc(=S)n(CCc2ccccc2)c1/N=C/c1ccc(Br)cc1 , Adenosine receptor A2a (Homo sapiens, UniProt P29274), Ki = 0.067 nM

Adenosine receptor A2a (Homo sapiens, UniProt P29274) assay, compound CCCCn1c(/N=C/c2ccc(F)cc2)c(C#N)sc1=S , recorded Ki = 0.027 nM
